The measured values listed here are drawn from the NIST ThermoML archive (doi:10.1021/acs.jced.5b00936).

- condition-details: 343.15 K; 100 kPa; Liquid; Concentric cylinders viscometry
endpoint-name: log10 of viscosity (log10 of the value in mPa·s)
Please interpret these as log10 of viscosity where viscosity is in mPa·s.

CCCC[N+](CCCC)(CCCC)CCCC.O=S(=O)([O-])CC(O)CNC1CCCCC1 ... 3.11
CCCC[P+](CCCC)(CCCC)CCCC.O=S(=O)([O-])CC(O)CN1CCOCC1 [tetrabutylphosphonium 2-hydroxy-3-morpholinopropanesulfonate] ... 2.41
C[N+](C)(C)CCO.O=S(=O)([O-])CC(O)CNC(CO)(CO)CO (centres undefined) ... 4.15
C[N+](C)(C)CCO.O=S(=O)([O-])CC(O)CN1CCOCC1 (centres undefined) ... 3.33
CCCC[P+](CCCC)(CCCC)CCCC.O=S(=O)([O-])CCN(CCO)CCO ... 2.55
CCCC[N+](CCCC)(CCCC)CCCC.O=S(=O)([O-])CCN(CCO)CCO ... 3.07
C[N+](C)(C)CCO.O=S(=O)([O-])CCN(CCO)CCO ... 2.93
CCCC[N+](CCCC)(CCCC)CCCC.O=S(=O)([O-])CC(O)CN1CCOCC1 [tetrabutylammonium 2-hydroxy-3-morpholinopropanesulfonate] ... 3.06

Please examine the following record next.
Request: # get_value(readout='log10 of viscosity', item= `CCCC[P+](CCCC)(CCCC)CCCC.O=S(=O)([O-])CC(O)CNC1CCCCC1` )
Response: 2.48

---

- protocol-notes: refractive index (Na D-line) (dimensionless)
- condition-details: 353.15 K; 100 kPa; Liquid; Standard Abbe refractometry
± gives the expanded uncertainty stated by the source.
endpoint-name: refractive index

CCCC[P+](CCCC)(CCCC)CCCC.O=S(=O)([O-])CC(O)CNC1CCCCC1 ... 1.4763 ± 0.0012
C[N+](C)(C)CCO.O=S(=O)([O-])CCN(CCO)CCO ... 1.48633 ± 0.0012
CCCC[N+](CCCC)(CCCC)CCCC.O=S(=O)([O-])CC(O)CN1CCOCC1 [tetrabutylammonium 2-hydroxy-3-morpholinopropanesulfonate] ... 1.46984 ± 0.0011
CCCC[N+](CCCC)(CCCC)CCCC.O=S(=O)([O-])CCN(CCO)CCO ... 1.47363 ± 0.0011
CCCC[P+](CCCC)(CCCC)CCCC.O=S(=O)([O-])CCN(CCO)CCO ... 1.48003 ± 0.0011

Consider the following items and state reported refractive index for each.
1. C[N+](C)(C)CCO.O=S(=O)([O-])CC(O)CN1CCOCC1 (centres undefined)
2. C[N+](C)(C)CCO.O=S(=O)([O-])CC(O)CNC(CO)(CO)CO (centres undefined)
3. CCCC[N+](CCCC)(CCCC)CCCC.O=S(=O)([O-])CC(O)CNC1CCCCC1
4. CCCC[P+](CCCC)(CCCC)CCCC.O=S(=O)([O-])CC(O)CN1CCOCC1 [tetrabutylphosphonium 2-hydroxy-3-morpholinopropanesulfonate]

Response:
["1.4852 ± 0.0012", "1.50327 ± 0.0012", "1.46985 ± 0.0012", "1.47622 ± 0.0011"]

---

- condition-details: 308.15 K; 100 kPa; Liquid; Concentric cylinders viscometry
endpoint-name: log10 viscosity (log10 of the value in mPa·s)
Please interpret these as log10 of viscosity where viscosity is in mPa·s.

CCCC[P+](CCCC)(CCCC)CCCC.O=S(=O)([O-])CCN(CCO)CCO ... 3.73

Consider the following items and state reported log10 viscosity for each.
1. CCCC[P+](CCCC)(CCCC)CCCC.O=S(=O)([O-])CC(O)CN1CCOCC1 [tetrabutylphosphonium 2-hydroxy-3-morpholinopropanesulfonate]
2. C[N+](C)(C)CCO.O=S(=O)([O-])CC(O)CN1CCOCC1 (configuration not stated)
3. CCCC[P+](CCCC)(CCCC)CCCC.O=S(=O)([O-])CC(O)CNC1CCCCC1
4. CCCC[N+](CCCC)(CCCC)CCCC.O=S(=O)([O-])CC(O)CN1CCOCC1 [tetrabutylammonium 2-hydroxy-3-morpholinopropanesulfonate]
5. CCCC[N+](CCCC)(CCCC)CCCC.O=S(=O)([O-])CC(O)CNC1CCCCC1

Response:
1. 3.46
2. 4.69
3. 3.58
4. 4.53
5. 4.62

Request: # get_value(readout='log10 viscosity', item= `C[N+](C)(C)CCO.O=S(=O)([O-])CCN(CCO)CCO` )
Response: 3.94

---

So I've got a bunch of compounds here, and I need their mass density values.
- condition-details: 338.15 K; 100 kPa; Liquid; Vibrating tube method
Answers are plain numbers, in kg/m3.

Recorded results for 5 compounds are shown here.
CCCC[N+](CCCC)(CCCC)CCCC.O=S(=O)([O-])CC(O)CNC1CCCCC1 ... 1002.8
CCCC[N+](CCCC)(CCCC)CCCC.O=S(=O)([O-])CCN(CCO)CCO ... 1038.4
CCCC[N+](CCCC)(CCCC)CCCC.O=S(=O)([O-])CC(O)CN1CCOCC1 [tetrabutylammonium 2-hydroxy-3-morpholinopropanesulfonate] ... 1033.1
C[N+](C)(C)CCO.O=S(=O)([O-])CC(O)CN1CCOCC1 (centres undefined) ... 1216.5
C[N+](C)(C)CCO.O=S(=O)([O-])CCN(CCO)CCO ... 1222.2

Consider the following items and state reported mass density for each.
1. CCCC[P+](CCCC)(CCCC)CCCC.O=S(=O)([O-])CC(O)CNC1CCCCC1
2. CCCC[P+](CCCC)(CCCC)CCCC.O=S(=O)([O-])CCN(CCO)CCO
3. C[N+](C)(C)CCO.O=S(=O)([O-])CC(O)CNC(CO)(CO)CO (centres undefined)
4. CCCC[P+](CCCC)(CCCC)CCCC.O=S(=O)([O-])CC(O)CN1CCOCC1 [tetrabutylphosphonium 2-hydroxy-3-morpholinopropanesulfonate]

Response:
1. 1006.8
2. 1038.4
3. 1310.3
4. 1032.1

---

- condition-details: 353.15 K; 100 kPa; Liquid; Concentric cylinders viscometry
So I've got a bunch of compounds here, and I need their viscosity values.
Answers are plain numbers, in mPa·s.

Recorded results for 2 compounds are shown here.
CCCC[P+](CCCC)(CCCC)CCCC.O=S(=O)([O-])CC(O)CNC1CCCCC1 ... 177.9
C[N+](C)(C)CCO.O=S(=O)([O-])CC(O)CN1CCOCC1 (centres undefined) ... 1122.3

Consider the following items and state reported viscosity for each.
1. CCCC[N+](CCCC)(CCCC)CCCC.O=S(=O)([O-])CCN(CCO)CCO
2. CCCC[N+](CCCC)(CCCC)CCCC.O=S(=O)([O-])CC(O)CN1CCOCC1 [tetrabutylammonium 2-hydroxy-3-morpholinopropanesulfonate]
3. CCCC[N+](CCCC)(CCCC)CCCC.O=S(=O)([O-])CC(O)CNC1CCCCC1

Response:
[630, 574.9, 635.7]

---

- protocol-notes: refractive index (Na D-line) (dimensionless)
- condition-details: 308.15 K; 100 kPa; Liquid; Standard Abbe refractometry
endpoint-name: refractive index
Numbers only.

Recorded results for 3 compounds are shown here.
CCCC[N+](CCCC)(CCCC)CCCC.O=S(=O)([O-])CC(O)CNC1CCCCC1 ... 1.48329
C[N+](C)(C)CCO.O=S(=O)([O-])CCN(CCO)CCO ... 1.49826
CCCC[P+](CCCC)(CCCC)CCCC.O=S(=O)([O-])CC(O)CN1CCOCC1 [tetrabutylphosphonium 2-hydroxy-3-morpholinopropanesulfonate] ... 1.48999

Please examine the following record next.
Request: # get_value(readout='refractive index', item= `CCCC[P+](CCCC)(CCCC)CCCC.O=S(=O)([O-])CC(O)CNC1CCCCC1` )
Response: 1.48983

---

- condition-details: 323.15 K; 100 kPa; Liquid; Concentric cylinders viscometry
endpoint-name: viscosity (mPa·s)
Answers are plain numbers, in mPa·s.

Recorded results for 2 molecules are shown here.
C[N+](C)(C)CCO.O=S(=O)([O-])CC(O)CN1CCOCC1 (stereo not drawn) ... 10898
CCCC[P+](CCCC)(CCCC)CCCC.O=S(=O)([O-])CC(O)CN1CCOCC1 [tetrabutylphosphonium 2-hydroxy-3-morpholinopropanesulfonate] ... 886.7

Please examine the following record next.
Request: # get_value(readout='viscosity', item= CCCC[N+](CCCC)(CCCC)CCCC.O=S(=O)([O-])CC(O)CN1CCOCC1 [tetrabutylammonium 2-hydroxy-3-morpholinopropanesulfonate] )
Response: 6381.1

---

- condition-details: 303.15 K; 100 kPa; Liquid; Concentric cylinders viscometry
So I've got a bunch of compounds here, and I need their viscosity values.
Give bare numbers, in mPa·s.

Recorded results for 2 compounds are shown here.
C[N+](C)(C)CCO.O=S(=O)([O-])CCN(CCO)CCO ... 13056
CCCC[P+](CCCC)(CCCC)CCCC.O=S(=O)([O-])CC(O)CN1CCOCC1 [tetrabutylphosphonium 2-hydroxy-3-morpholinopropanesulfonate] ... 4493.6

Consider the following items and state reported viscosity for each.
1. CCCC[P+](CCCC)(CCCC)CCCC.O=S(=O)([O-])CCN(CCO)CCO
2. CCCC[P+](CCCC)(CCCC)CCCC.O=S(=O)([O-])CC(O)CNC1CCCCC1

Response:
1. 8504.9
2. 6481.6
